System: OVCAR-3 ovarian
Assay: NCI tumour cell line growth inhibition, 48 h
PROPERTY LABEL: TGI

Cn1cc(-c2cnn3c(N)c(Br)c(C4CCCNC4)nc23)cn1 (stereo not given)	> 88.9 µM

Quick batch: TGI for everything below.
1. Cc1nc2c(o1)C(=Nc1ccccc1)c1nc(C)oc1C2=Nc1ccccc1
2. Cc1c(N=C/C=C/c2ccccc2)c(=O)n(-c2ccccc2)n1C

["> 100 µM", "67.9 µM"]

Quick batch: TGI for everything below.
1. CC(=O)NNc1nc(C)c(C(/C=C/c2ccccc2O)=N/N=C(N)N)s1
2. O=C(Nc1ccc(Cl)c(Cl)c1)C(=O)C(C(=O)c1ccccc1-c1ccccc1)C1OC(=O)c2ccccc21 (stereo not given)

> 100 µM
31.9 µM

Quick batch: TGI for everything below.
1. COC(=O)/C=C1/OC(c2ccccc2)=C(C)C1=O
2. N[C@@H]1CCN(c2c(F)cc3c(=O)c(C(=O)O)cn4c3c2Oc2cc3c(ccc5ccccc53)cc2-4)C1
3. COC(=O)[C@@]12CC(C(C)C)[C@H]3CC(C(=O)C=C1OC)[C@H]32 (stereo not given in full)
4. CCOc1ccccc1N=Nc1c(-c2ccccc2)nn(C(=O)CC(=O)Nc2cccc(C)c2)c1-c1ccccc1
5. CCOC(=O)c1nc2ccc(C(F)(F)F)cc2nc1NCc1ccc(OC)c(OC)c1
6. CC(=O)c1ccc2c(c1)CC1(C2)Cc2cc3c(c(C(=O)O)c2C1)CCC3 (stereo not given)
7. c1ccc(CNCCN(CCNCc2ccccn2)Cc2ccc3ccccc3c2)nc1
8. C/C=C1\CN2CCc3c([nH]c4ccccc34)C2CC1CCO (stereo not given)

1: 41.9 µM; 2: 34.5 µM; 3: > 100 µM; 4: > 100 µM; 5: > 100 µM; 6: > 100 µM; 7: 3.74 µM; 8: > 100 µM
